# target: human HSD1 (recombinant HSD1) (Homo sapiens)
# experiment notes: In vitro HSD1 activity inhibitory action, SPA of cortisone to cortisol conversion
# condition label: recombinant human HSD1 0.1 μg/ml, 500 μM NADPH, 16 nM 3H cortisone, room temperature 90 min, read-out: hHSD1 IC50
pIC50: −log10 of the molar value.
readout name: pIC50

A selection of reference data follows.
COC(=O)C1(c2ccccc2)CCN(c2nnc(C3(c4ccccc4)CC3)n2C)CC1 [Ex. 2-2] | 6.00 to 8.00
COC(=O)c1ccccc1OC1CCN(c2nnc(C3(c4ccccc4)CC3)n2C)CC1 [Ex. 2-50] | 6.00 to 8.00
Cn1c(N2CCC(=O)CC2)nnc1C1(c2ccccc2)CC1 [Ex. 2-48] | > 8.00
Cn1c(N2Cc3ccccc3C2)nnc1C1(c2ccccc2)CC1 [Ex. 2-91] | > 8.00
Cn1c(-c2ccc(OCC(N)=O)cc2Cl)nnc1C1(c2ccccc2)CC1 [Ex. 1-69] | > 8.00
Cn1c(-c2ccc(NC(=O)N3CCCC(O)C3)cc2Cl)nnc1C1(c2ccccc2)CC1 (stereo not shown) [Ex. 1-41] | 6.00 to 8.00
Cn1c(C2CCN(c3ncccc3Cl)CC2)nnc1C1(c2ccccc2)CCCC1 [Ex. 1-2] | > 8.00
Cn1c(-c2ccncc2Cl)nnc1C1(c2ccccc2)CC1 [Ex. 1-96] | > 8.00

Entry under review: Cn1c(C2CCN(c3c(Cl)cncc3Cl)CC2)nnc1C1(c2ccccc2)CCCC1 [Ex. 1-13] . Reported pIC50?
> 8.00

Entry under review: CC(C)Cn1c(N2CCC(Oc3ncc(Cl)cc3Cl)CC2)nnc1C1(c2ccccc2)CC1 [Ex. 2-77] . Reported pIC50?
6.00 to 8.00

Entry under review: CC(C)n1c(-c2cccc(C(N)=O)c2)nnc1C1(c2ccccc2)CC1 [Ex. 1-160] . Reported pIC50?
> 8.00

Entry under review: Cn1c(N2CCNCC2)nnc1C1(c2ccccc2)CC1 [Ex. 2-26] . Reported pIC50?
6.00 to 8.00

Entry under review: Cn1c(N2CCC(C)(C(=O)O)CC2)nnc1C1(c2ccccc2)CC1 [Ex. 2-69] . Reported pIC50?
6.00 to 8.00

###

# target: human HSD1 (recombinant HSD1) (Homo sapiens, UniProt P28845)
# Sequence (P28845 whole entry): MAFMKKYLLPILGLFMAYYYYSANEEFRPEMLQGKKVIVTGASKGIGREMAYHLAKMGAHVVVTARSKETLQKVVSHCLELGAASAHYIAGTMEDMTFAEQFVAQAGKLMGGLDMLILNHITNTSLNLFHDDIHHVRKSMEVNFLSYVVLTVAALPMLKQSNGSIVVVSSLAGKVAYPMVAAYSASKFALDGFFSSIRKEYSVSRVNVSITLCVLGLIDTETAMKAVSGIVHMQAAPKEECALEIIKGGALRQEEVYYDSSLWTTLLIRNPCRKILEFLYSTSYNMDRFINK
# experiment notes: In vitro HSD1 activity inhibitory action, SPA of cortisone to cortisol conversion
# condition label: recombinant human HSD1 0.1 μg/ml, 500 μM NADPH, 16 nM 3H cortisone, room temperature 90 min, read-out: hHSD1 IC50
pIC50: −log10 of the molar value.
Measured pIC50, listed per entry for reference.

A selection of reference data follows.
Cn1c(-c2ccc(N3CCOCC3)cc2)nnc1C1(c2ccccc2)CC1 | 6.00 to 8.00
Cn1c(N2CCC(Oc3ncc(Cl)cc3Cl)CC2)nnc1C1(c2ccccc2)CCCC1 | > 8.00
Cn1c(C2(c3ccccc3)CC2)nnc1[C@H]1CC[C@H](C(=O)O)CC1 | 6.00 to 8.00

Please turn your attention to the following entry.
Entry under review: "Cn1c(-c2ccc(N3CCC(C(=O)N4CCCCC4)CC3)cc2Cl)nnc1C1(c2ccccc2)CC1" . Reported pIC50?
> 8.00

###

# target: human HSD1 (recombinant HSD1) (Homo sapiens, UniProt P28845)
# experiment notes: In vitro HSD1 activity inhibitory action, SPA of cortisone to cortisol conversion
# condition label: recombinant human HSD1 0.1 μg/ml, 500 μM NADPH, 16 nM 3H cortisone, room temperature 90 min, read-out: hHSD1 IC50
pIC50: −log10 of the molar value.
Measured pIC50, listed per entry for reference.

Cn1c(N2CCC(Oc3ccc(Cl)cn3)CC2)nnc1C1(c2ccccc2)CC1 [Ex. 2-39] | > 8.00
Cn1c(N2CCC(Oc3ccc(F)cc3Cl)CC2)nnc1C1(c2ccccc2)CC1 [Ex. 2-36] | > 8.00
Cn1c(-c2ccc(N3CCCC3)cc2Cl)nnc1C1(c2ccccc2)CC1 [Ex. 1-57] | > 8.00
Cn1c(-c2ccc(N3CCC(N)CC3)cc2Cl)nnc1C1(c2ccccc2)CC1 [Ex. 1-64] | 6.00 to 8.00
Cn1c(N2CCC(Oc3ncc(Cl)cc3Cl)CC2)nnc1C1(c2ccc(Cl)cc2Cl)CC1 [Ex. 2-88] | 6.00 to 8.00
CNC(=O)C1CCN(c2ccc(-c3nnc(C4(c5ccccc5)CC4)n3C)c(Cl)c2)CC1 [Ex. 1-60] | > 8.00

Entry under review: Cn1c(-c2ccc(Cl)cc2N)nnc1C1(c2ccccc2)CC1 [Ex. 1-94] . Reported pIC50?
6.00 to 8.00

Entry under review: Cn1c(-c2ccc(NCCO)cc2Cl)nnc1C1(c2ccc(F)cc2)CC1 [Ex. 1-120] . Reported pIC50?
> 8.00

###

# target: human HSD1 (recombinant HSD1) (Homo sapiens, UniProt P28845)
# experiment notes: In vitro HSD1 activity inhibitory action, SPA of cortisone to cortisol conversion
# condition label: recombinant human HSD1 0.1 μg/ml, 500 μM NADPH, 16 nM 3H cortisone, room temperature 90 min, read-out: hHSD1 IC50
# Description: In Vitro HSD1 (Hydroxysteroid Dehydrogenase 1) Activity Inhibitory Action The HSD1 inhibitory activity was examined by quantitative determination by an SPA (scintillation proximity assay) system of the suppressive action on the conversion from cortisone to cortisol using human HSD1 (hereinafter recombinant HSD1) expressed using a baculo-virus system as an enzyme source. […] The IC50 value was analyzed using a computer-based curve fitting soft.
readout name: IC50

A selection of reference data follows.
Cn1c(C2(c3ccccc3)CC2)nnc1[C@H]1CC[C@H](C(N)=O)CC1 | < 0.01 µM
Cn1c(N2CCC(O)(c3ccccc3)CC2)nnc1C1(c2ccccc2)CC1 | 0.01 to 1 µM
COc1cc(C(=O)O)ccc1-c1nnc(C2(c3ccccc3)CC2)n1C | 0.01 to 1 µM

Entry under review: "Cn1c(N2CCC(Oc3ccc(Cl)c(C(=O)O)c3)CC2)nnc1C1(c2ccccc2)CC1" . Reported IC50?
0.01 to 1 µM

Entry under review: "CNC(=O)c1ccc(-c2nnc(C3(c4ccccc4)CC3)n2C)c(Cl)c1" . Reported IC50?
< 0.01 µM

Entry under review: "Cn1c(-c2ccc(N)cc2Cl)nnc1C1(c2ccccc2)CC1" . Reported IC50?
< 0.01 µM

Entry under review: Cn1c(-c2ccc(C(C)(O)C(F)(F)F)cc2Cl)nnc1C1(c2ccccc2)CC1 (stereo not drawn) . Reported IC50?
< 0.01 µM

Entry under review: "COC1CCN(c2nnc(C3(c4ccccc4)CC3)n2C)CC1" . Reported IC50?
0.01 to 1 µM

Entry under review: "COc1cc(C(N)=O)ccc1-c1nnc(C2(c3ccccc3)CC2)n1C" . Reported IC50?
< 0.01 µM

###

Measured IC50, listed per entry for reference.
# target: human HSD1 (recombinant HSD1) (Homo sapiens)
# experiment notes: In vitro HSD1 activity inhibitory action, SPA of cortisone to cortisol conversion
# condition label: recombinant human HSD1 0.1 μg/ml, 500 μM NADPH, 16 nM 3H cortisone, room temperature 90 min, read-out: hHSD1 IC50

A selection of reference data follows.
CN(C)C(=O)Nc1ccc(-c2nnc(C3(c4ccccc4)CC3)n2C)c(Cl)c1 | 10 to 1000 nM
Cn1c(-c2ccc(C(=O)O)cc2Cl)nnc1C1(c2ccc(F)cc2)CC1 | 10 to 1000 nM
CNC(=O)CCn1c(C2CCN(c3c(Cl)cncc3Cl)CC2)nnc1C1(c2ccccc2)CC1 | 10 to 1000 nM
Cn1c(-c2ccccc2Cl)nnc1C1(c2ccccc2)CC1 | < 10 nM

Enter reported IC50 observed with human HSD1 (recombinant HSD1) (Homo sapiens) for "Cn1c(-c2ccc(N3CCOCC3)cc2Cl)nnc1C1(c2ccccc2)CC1"
< 10 nM

Enter reported IC50 observed with human HSD1 (recombinant HSD1) (Homo sapiens) for "Cn1c(N2CCC(Oc3ccc(Cl)c(CO)c3)CC2)nnc1C1(c2ccccc2)CC1"
10 to 1000 nM

Enter reported IC50 observed with human HSD1 (recombinant HSD1) (Homo sapiens) for "CC(=O)N(C)C1CCN(c2nnc(C3(c4ccccc4)CC3)n2C)CC1"
10 to 1000 nM

Enter reported IC50 observed with human HSD1 (recombinant HSD1) (Homo sapiens) for "COCCOC(=O)C1CCN(c2ccc(-c3nnc(C4(c5ccccc5)CC4)n3C)c(Cl)c2)CC1"
< 10 nM

Enter reported IC50 observed with human HSD1 (recombinant HSD1) (Homo sapiens) for "Cn1c(-c2ccc(Br)cc2Cl)nnc1C1(c2ccccc2)CC1"
< 10 nM

Enter reported IC50 observed with human HSD1 (recombinant HSD1) (Homo sapiens) for "Cn1c(-c2ccc(NS(C)(=O)=O)cc2Cl)nnc1C1(c2ccccc2)CC1"
< 10 nM

###

# target: human HSD1 (recombinant HSD1) (Homo sapiens, UniProt P28845)
# experiment notes: In vitro HSD1 activity inhibitory action, SPA of cortisone to cortisol conversion
# condition label: recombinant human HSD1 0.1 μg/ml, 500 μM NADPH, 16 nM 3H cortisone, room temperature 90 min, read-out: hHSD1 IC50
# Procedure: In Vitro HSD1 (Hydroxysteroid Dehydrogenase 1) Activity Inhibitory Action The HSD1 inhibitory activity was examined by quantitative determination by an SPA (scintillation proximity assay) system of the suppressive action on the conversion from cortisone to cortisol using human HSD1 (hereinafter recombinant HSD1) expressed using a baculo-virus system as an enzyme source. […] The IC50 value was analyzed using a computer-based curve fitting soft.
readout name: IC50

A selection of reference data follows.
CNC1CCN(c2nnc(C3(c4ccccc4)CC3)n2C)CC1 | 10 to 1000 nM
CCn1c(N2CCC(Oc3ncc(Cl)cc3Cl)CC2)nnc1C1(c2ccccc2)CC1 | < 10 nM
Cn1c(-c2ccc(N3CCN(S(C)(=O)=O)CC3)cc2Cl)nnc1C1(c2ccccc2)CC1 | < 10 nM

Please turn your attention to the following entry.
Enter reported IC50 observed with human HSD1 (recombinant HSD1) (Homo sapiens, UniProt P28845) for Cn1c(-c2ccc(N3CCC(O)C3)cc2Cl)nnc1C1(c2ccccc2)CC1 (centres unmarked)
< 10 nM
